biological target: Sonic hedgehog signaling; test: Clonal NIH-3T3 line with stably integrated Shh-responsive luciferase reporter (Shh-LIGHT/Shh-LIGHT2), inhibition of Sonic hedgehog induction; type: cell-based, mouse; details: concentration for 50% inhibition of Sonic hedgehog induction; Table II
pIC50: −log10 of the molar value.
Assay endpoint: pIC50

| Smiles string | Assay endpoint | Result |
| --- | --- | --- |
| CC1=C2C[C@H]3[C@@H](CC=C4C[C@@H](O)CC[C@@]43C)[C@@H]2CC[C@]12O[C@@H]1C[C@H](C)CN(CCNC(=O)CCCCCNC(=O)CCc3ccccc3)[C@H]1[C@H]2C | pIC50 | < 8.00 |

# evaluate next
*Q* # query: pIC50 | item CC1=CC(C)=[N+]2C1=Cc1ccc(CCC(=O)NCCCCCC(=O)NCCN3C[C@@H](C)C[C@H]4O[C@]5(CC[C@@H]6C(=C5C)C[C@H]5[C@H]6CC=C6C[C@@H](O)CC[C@@]65C)[C@H](C)[C@@H]43)n1[B-]2(F)F | system: Sonic hedgehog signaling
*A* < 7.00
